# METHOD DESCRIPTION: Solubility determination
# Type: physicochemical
# SETTINGS: 22 °C, aqueous buffer, kinetic from dmso stock
MEASURED ATTRIBUTE: solubility kinetic at 10 min (µM)
Use µM as the unit, but write only the number.

Please fill in: solubility kinetic at 10 min reported for Cc1cccc(C[C@H](NC(=O)Nc2ccc(Cl)cc2F)C(=O)N[C@H]2COC(=O)[C@@H]3C[C@@H](C)CN3C(=O)[C@H](C)NC(=O)[C@@H]3CCCCN3C(=O)[C@@H]3CCCN3C2=O)c1 = 2.79

----------
// values below are pIC50; system is Sa-ClpP (Staphylococcus aureus, UniProt Q2G036)
Sequence (Q2G036 whole entry): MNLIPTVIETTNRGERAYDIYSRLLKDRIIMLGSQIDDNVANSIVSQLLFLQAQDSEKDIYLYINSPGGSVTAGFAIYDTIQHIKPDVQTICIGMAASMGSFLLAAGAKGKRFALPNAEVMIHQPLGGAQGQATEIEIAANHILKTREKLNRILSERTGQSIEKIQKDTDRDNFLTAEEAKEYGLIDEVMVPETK
Numbered stars: 1 amine (or outer) side, 2 acyl side, 3 side chain; on linkers, the order of the positions; unused ones are H or OH. Bridge positions count the residues as written; N and C are the ends. Square brackets hold non-standard residues; d marks the D form. Peptide text beside a SMILES is read from it. * marks the point of attachment. Piperazine(2S-CO,4-Me) = CN1CCN[C@H](C(=O)O)C1; NH(1,3-benzodioxol-5-yl) = c1cc2c(cc1N*)OCO2; Phe(3-Me) = Cc1cccc(C[C@H](N)C(=O)O)c1; X4 = O=C1CN([*:1])[C@H](C(=O)[*:2])CN1; NH(4-Cl-2-F-phenyl) = Fc1cc(Cl)ccc1N*; Pro(4R-Me) = C[C@H]1CN[C@H](C(=O)O)C1; aThr = C[C@H](O)[C@H](N)C(=O)O; CO = O=C([*:1])[*:2]
The scale used: pIC50 is minus the common logarithm of the concentration in molar units.

Please review the entries below; each comes with its answer.
compound="Cc1cccc(C[C@H](NC(=O)Nc2ccc(Cl)cc2F)C(=O)N[C@@H]2C(=O)N3CCC[C@H]3C(=O)N3CC(=O)NC[C@H]3C(=O)N[C@@H](C)C(=O)N3C[C@H](C)C[C@H]3C(=O)O[C@H]2C)c1 [Compound 20] ({NH(4-Cl-2-F-phenyl)-CO}-[Phe(3-Me)][aThr]P[X4]A[Pro(4R-Me)]; ester 2-C)" result=5.38
compound="Cc1cccc(C[C@H](NC(=O)Nc2ccc(Cl)cc2F)C(=O)N[C@H]2COC(=O)[C@@H]3C[C@@H](C)CN3C(=O)[C@H](C)NC(=O)[C@@H]3CN(C)CCN3C(=O)[C@@H]3CCCN3C2=O)c1 [Compound 13] ({NH(4-Cl-2-F-phenyl)-CO}-[Phe(3-Me)]SP[Piperazine(2S-CO,4-Me)]A[Pro(4R-Me)]; ester 2-C)" result=4.79

// next entry
The value of pIC50 recorded for Cc1cccc(C[C@H](NC(=O)Nc2ccc3c(c2)OCO3)C(=O)N[C@H]2COC(=O)[C@@H]3C[C@@H](C)CN3C(=O)[C@H](C)NC(=O)[C@@H]3CN(C)CCN3C(=O)[C@@H]3CCCN3C2=O)c1 [Compound 17] ({NH(1,3-benzodioxol-5-yl)-CO}-[Phe(3-Me)]SP[Piperazine(2S-CO,4-Me)]A[Pro(4R-Me)]; ester 2-C) when tested on Sa-ClpP (Staphylococcus aureus, UniProt Q2G036) reads 5.22
